Provenance of the data: ChEMBL document CHEMBL5131506

molecular target: Carbonic anhydrase 2 (Homo sapiens); assay: Inhibition of human recombinant carbonic anhydrase 2 assessed as inhibition constant incubated for 10 mins by phenol red dye based stopped-flow CO2 hydration assay
Consider the following compounds; for each one, report its log10(Ki).
Recorded Ki (log10, nM)

In the examples that follow, each entry is paired with its recorded log10(Ki).
O=C(/C=C/c1sc(N2CCOCC2)nc1-c1ccc([N+](=O)[O-])cc1)Nc1ccc(Br)cc1
0.97
NS(=O)(=O)c1ccc(CCNC(=O)c2cc(-c3ccccc3)nc3ccc(Cl)cc23)cc1
1.63
COc1ccc2nc(-c3ccc(OC)c(OC)c3)cc(C(=O)Nc3cccc(S(N)(=O)=O)c3)c2c1
1.99

Below are 3 compounds. Give each one its log10(Ki).
1. COc1ccc(-c2cc(C(=O)Nc3ccc(S(N)(=O)=O)cc3)c3ccccc3n2)c(OC)c1
2. NS(=O)(=O)c1ccc(NC(=O)c2cc(-c3ccc4c(c3)OCO4)nc3ccccc23)cc1
3. COc1ccc2nc(-c3ccccc3)cc(C(=O)Nc3ccc(S(N)(=O)=O)cc3)c2c1

A)
2.78
0.85
1.96

====

target: Carbonic anhydrase 1 (Homo sapiens, UniProt P00915); assay: Inhibition of human recombinant carbonic anhydrase 1 assessed as inhibition constant incubated for 10 mins by phenol red dye based stopped-flow CO2 hydration assay
Sequence (P00915 whole entry): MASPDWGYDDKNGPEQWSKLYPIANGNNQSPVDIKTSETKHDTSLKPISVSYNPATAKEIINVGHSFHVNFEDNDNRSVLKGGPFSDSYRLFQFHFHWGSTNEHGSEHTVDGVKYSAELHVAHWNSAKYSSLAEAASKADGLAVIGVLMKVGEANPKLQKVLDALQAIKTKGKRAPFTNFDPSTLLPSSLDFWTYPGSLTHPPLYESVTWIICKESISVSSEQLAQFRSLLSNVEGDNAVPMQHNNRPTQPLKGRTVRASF
Consider the following compounds; for each one, report its log10 Ki.
Recorded Ki (log10, nM)

COc1ccc(-c2cc(C(=O)NCCc3ccc(S(N)(=O)=O)cc3)c3ccccc3n2)cc1OC
1.96
COc1ccc2nc(-c3ccccc3)cc(C(=O)Nc3ccc(S(N)(=O)=O)cc3)c2c1
2.73

Below are 3 compounds. Give each one its log10 Ki.
1. NS(=O)(=O)c1ccc(CCNC(=O)c2cc(-c3ccccc3)nc3ccc(Cl)cc23)cc1
2. COc1ccc(-c2cc(C(=O)Nc3ccc(S(N)(=O)=O)cc3)c3cc(Cl)ccc3n2)cc1OC
3. COc1ccc2nc(-c3ccc(Cl)cc3Cl)cc(C(=O)Nc3cccc(S(N)(=O)=O)c3)c2c1

A)
1: 3.28; 2: 2.90; 3: 2.95

====

Consider the following molecules; for each one, report its Ki.
target: Carbonic anhydrase 2 (Homo sapiens, UniProt P00918); experiment: Inhibition of human recombinant carbonic anhydrase 2 assessed as inhibition constant incubated for 10 mins by phenol red dye based stopped-flow CO2 hydration assay
Give bare numbers, in nM.

NS(=O)(=O)c1cccc(NC(=O)c2cc(-c3cccc(Cl)c3)nc3ccc(Cl)cc23)c1
257
COc1ccc(-c2cc(C(=O)NCCc3ccc(S(N)(=O)=O)cc3)c3cc(Cl)ccc3n2)cc1OC
187
COc1ccc2nc(-c3ccccc3OC)cc(C(=O)NCCc3ccc(S(N)(=O)=O)cc3)c2c1
382
COc1ccc2nc(-c3ccccc3C)cc(C(=O)Nc3ccc(S(N)(=O)=O)cc3)c2c1
28.5

Let us move to another entry and its Ki.
Q) Item under review: COc1ccc(-c2cc(C(=O)Nc3cccc(S(N)(=O)=O)c3)c3ccccc3n2)cc1OC . Reported Ki?
A) 388

====

molecular target: Carbonic anhydrase 1 (Homo sapiens, UniProt P00915); assay: Inhibition of human recombinant carbonic anhydrase 1 assessed as inhibition constant incubated for 10 mins by phenol red dye based stopped-flow CO2 hydration assay
Consider the following molecules; for each one, report its log10 Ki.
Recorded Ki (log10, nM)

In the examples that follow, each entry is paired with its recorded log10 Ki.
COc1ccc(-c2cc(C(=O)Nc3ccc(S(N)(=O)=O)cc3)c3ccccc3n2)c(OC)c1
3.73
NS(=O)(=O)c1cccc(NC(=O)c2cc(-c3ccc4c(c3)OCO4)nc3ccccc23)c1
3.16
NS(=O)(=O)c1ccc(CCNC(=O)c2cc(-c3ccc4c(c3)OCO4)nc3ccccc23)cc1
3.56
NS(=O)(=O)c1ccc(NC(=O)c2cc(-c3ccc4c(c3)OCO4)nc3ccccc23)cc1
2.41
NS(=O)(=O)c1ccc(NC(=O)c2cc(-c3cccc(C(F)(F)F)c3)nc3ccccc23)cc1
2.82

Below are 4 molecules. Give each one its log10 Ki.
1. COc1ccc2nc(-c3ccc(OC)c(OC)c3)cc(C(=O)Nc3ccc(S(N)(=O)=O)cc3)c2c1
2. NS(=O)(=O)c1cccc(NC(=O)c2cc(-c3cccc(Br)c3)nc3ccccc23)c1
3. NS(=O)(=O)c1ccc(NC(=O)c2cc(-c3cccc(Cl)c3)nc3ccccc23)cc1
4. COc1ccc2nc(-c3ccccc3OC)cc(C(=O)NCCc3ccc(S(N)(=O)=O)cc3)c2c1

A)
[2.62, 2.93, 2.92, 2.96]
